system: HeLa cells; assay: Alamar Blue viability assay, HeLa; type: cell-based, human; details: Homo sapiens, HeLa; 48 h of treatment
measured.quantity: IC50 (µM)
Use µM as the unit, but write only the number.

Worked cases, answers included:
>>> print(df.to_string())
                        structure_as_smiles  measured_quantity  readout_number
0      O=C1c2cccc(O)c2C(=O)c2c(O)cc(CO)cc21               IC50              26
1    Cc1cc(O)c2c(c1)C(=O)c1cc(O)cc(O)c1C2=O               IC50             110
2  Cc1c(C(=O)O)c(O)cc2c1C(=O)c1c(O)c([C@@H]3O[C@H](CO)[C@@H](O)[C@H](O)[C@H]3O)c(O)c(O)c1C2=O               IC50             387

// next item, IC50 requested
Record "O=C(O)c1cc(O)c2c(c1)C(=O)c1cccc(O)c1C2=O" ; system HeLa cells; IC50 = 126

====

biological target: ALKBH3 (Homo sapiens); construct: made in house; assay: In vitro inhibition assay of demethylation activity (HPLC), ALKBH3; type: biochemical; conditions: ALKBH3 100 nM; 3meC on TT(3meC)TT pentamer; 30 min 37 °C; read-out: IC50 (Enzyme: ALKBH3 100nM; Substrate: 3meC)
Catalogue of IC50 readings, one per entry.
Use µM as the unit, but write only the number.

molecule	unit.spec	IC50
Cc1cc(O)c2c(c1)C(=O)c1cc(O)cc(O)c1C2=O [Emodin]	µM	540

Short answer for Cc1c(C(=O)O)c(O)cc2c1C(=O)c1c(O)c([C@@H]3O[C@H](CO)[C@@H](O)[C@H](O)[C@H]3O)c(O)c(O)c1C2=O [Carminic Acid, Carminic acid] : IC50 was 111

Short answer for Cc1c(Cl)c(O)c2c(c1Cl)C(=O)c1cc(O)cc(O)c1C2=O [5,7-Dichloroemodin] : IC50 was 176

Short answer for Cc1cc2c(c(O)c1Cl)C(=O)c1c(O)cc(O)cc1C2=O [7-Chloroemodin] : IC50 was 116

Short answer for O=C1c2cccc(O)c2C(=O)c2c(O)cc(CO)cc21 [Aloe-Emodin] : IC50 was 8.8

====

biological target: ALKBH3 (Homo sapiens, UniProt Q96Q83); construct: made in house; experiment: Thermal shift assay for ligand binding, ALKBH3 holo form; settings: ALKBH3 holo form (2OG, Mn2+), 5 µM compound; result in words
Sequence (Q96Q83 whole entry): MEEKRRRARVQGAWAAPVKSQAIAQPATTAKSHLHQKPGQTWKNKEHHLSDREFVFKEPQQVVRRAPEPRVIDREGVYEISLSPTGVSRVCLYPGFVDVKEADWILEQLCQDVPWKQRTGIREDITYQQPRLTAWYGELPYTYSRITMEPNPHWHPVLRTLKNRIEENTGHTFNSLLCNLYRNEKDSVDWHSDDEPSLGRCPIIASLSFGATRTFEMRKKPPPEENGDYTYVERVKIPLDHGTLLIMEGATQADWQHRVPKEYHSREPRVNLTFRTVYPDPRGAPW
measured.quantity: binding to ALKBH3 judged by increase of melting temperature

>>> df
                        structure_as_smiles                result
0  Cc1c(Cl)c(O)c2c(c1Cl)C(=O)c1cc(O)cc(O)c1C2=O  slightly more weakly
1    Cc1cc(O)c2c(c1)C(=O)c1cc(O)cc(O)c1C2=O  slightly more weakly
2      O=C1c2cccc(O)c2C(=O)c2c(O)cc(CO)cc21  slightly more weakly

====

test system: HeLa cells; test: Alamar Blue viability assay, HeLa; assay type: cell-based, human; conditions: 48 h of treatment
Catalogue of IC50 readings, one per entry.
Use µM as the unit, but write only the number.

                                   compound  readout_number
0  Cc1cc2c(c(O)c1Cl)C(=O)c1c(O)cc(O)cc1C2=O [7-Chloroemodin]            33.8

// next item, IC50 requested
Record Cc1c(Cl)c(O)c2c(c1Cl)C(=O)c1cc(O)cc(O)c1C2=O [5,7-Dichloroemodin] ; system HeLa cells; IC50 = 10.6
